- Study target: ABHD6 (Mus musculus (Mouse), UniProt Q8R2Y0)
- Sequence (Q8R2Y0 whole entry): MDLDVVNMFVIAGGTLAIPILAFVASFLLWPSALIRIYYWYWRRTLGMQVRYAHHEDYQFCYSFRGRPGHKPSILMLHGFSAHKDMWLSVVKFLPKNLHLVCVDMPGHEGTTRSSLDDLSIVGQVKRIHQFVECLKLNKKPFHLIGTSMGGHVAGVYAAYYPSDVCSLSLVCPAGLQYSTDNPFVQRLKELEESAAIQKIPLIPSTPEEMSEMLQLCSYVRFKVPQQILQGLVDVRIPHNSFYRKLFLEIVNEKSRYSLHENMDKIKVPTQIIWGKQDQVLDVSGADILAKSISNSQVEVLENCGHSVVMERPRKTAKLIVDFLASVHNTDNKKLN
- Assay: In vitro competitive activity-based protein profiling (mouse brain membrane fraction or cell lysates), ABHD6 band
- Format: biochemical
- Assay conditions: 1 μM, mouse; read-out: ABHD6 % Inh 1 μM (mouse)
Property measured: inhibition at 1 µM

Examples with answers:
>  <Molecule>
O=C(O)C1CCN(c2cc(F)ccc2CN2CCC3(CCN(C(=O)OC(C(F)(F)F)C(F)(F)F)CC3)C2)CC1 [Example 237]

>  <Property measured>
inhibition at 1 µM

>  <Result>
25 to 75%

$$$$
>  <Molecule>
O=C(O)C1CCN(c2cc(OC(F)(F)F)ccc2CN2CCCC23CCN(C(=O)OC(C(F)(F)F)C(F)(F)F)CC3)CC1 [Example 248]

>  <Property measured>
inhibition at 1 µM

>  <Result>
< 25%

$$$$
>  <Molecule>
O=C(O)C1CCCCN1c1cc(C(F)(F)F)ccc1CN1CCCC12CCN(C(=O)OC(C(F)(F)F)C(F)(F)F)CC2 (stereo not shown) [Example 259]

>  <Property measured>
inhibition at 1 µM

>  <Result>
< 25%

$$$$
>  <Molecule>
O=C(O)c1cc(CN2CCC3(CCN(C(=O)OC(C(F)(F)F)C(F)(F)F)CC3)C2)ccc1C(F)(F)F [Example 255]

>  <Property measured>
inhibition at 1 µM

>  <Result>
25 to 75%

$$$$
>  <Molecule>
O=C(O)C1CCN(Cc2cc(CN3CCCC34CCN(C(=O)OC(C(F)(F)F)C(F)(F)F)CC4)cc(OC(F)(F)F)c2)CC1 [Example 269]

>  <Property measured>
inhibition at 1 µM

>  <Result>
< 25%

$$$$
>  <Molecule>
NC(=O)C1CCN(c2cc(C(F)(F)F)ccc2CN2CCCC23CCN(C(=O)OC(C(F)(F)F)C(F)(F)F)CC3)CC1 [Example 273]

>  <Property measured>
inhibition at 1 µM

>  <Result>
25 to 75%

$$$$

Hello, I am looking for reported inhibition at 1 µM with ABHD6 (Mus musculus (Mouse), UniProt Q8R2Y0) for O=C(O)[C@@H]1CCCN(c2cc(CN3CCC4(CCN(C(=O)OC(C(F)(F)F)C(F)(F)F)CC4)C3)cc(C(F)(F)F)c2)C1 [Example 222] . Could you help? < 25%
